Let's look at some molecules and their measured Dissolution rate.
- PROTOCOL TEXT: Evaluation for dissolvability of phytochemical (dissolution rate in water)
- APPLIED CONDITIONS: ultrapure water, shaken for 3 hours, centrifuged supernatant, 21±2° C.

# ENTRY SMILES, Dissolution rate
rows = [
    ("CC1=C(/C=C/C(C)=C/C=C/C(C)=C/C=C/C=C(C)/C=C/C=C(C)/C=C/C(=O)[C@]2(C)C[C@@H](O)CC2(C)C)C(C)(C)C[C@H](O)C1", "0.1% or less"),
    ("CC1=C(/C=C/C(C)=C/C=C/C(C)=C/C=C/C=C(C)/C=C/C=C(C)/C=C/C2=C(C)C[C@@H](O)CC2(C)C)C(C)(C)CCC1", "0.1% or less"),
    ("O=C1C[C@@H](c2ccc(O)cc2)Oc2cc(O)cc(O)c21", "0.3%"),
]
